System: HCT-15 colon
protocol-text: NCI-60 one-dose screen, 48 h (100 = growth as untreated, 0 = no growth, -100 = all killed)
test-conditions: 10 µM
Compounds without any hit were thinned out: in the full panel of roughly 83,000, 20% have a hit.
metric: growth (%)
Give just the number in %; leave the unit off.

Exercise: # input compound: `CC(=O)Nc1nc(-c2ccc(N3CCN(C)CC3)c(NS(=O)(=O)c3cccc4c(N(C)C)cccc34)c2)cs1` ; wanted: its growth
Key: 18.5

Exercise: # input compound: `CCCn1c(=O)c2[nH]c(-c3ccc(OCc4nc5ccc(C#N)cc5[nH]4)cc3)nc2n(CCC)c1=O` ; wanted: its growth
Key: 84.7

Exercise: # input compound: `COc1csc(/C=N/NC(=O)c2[nH]c3ccc(Br)cc3c2-c2ccccc2)c1` ; wanted: its growth
Key: 0.545

Exercise: # input compound: `Cc1noc2c(Cc3ccc([N+](=O)[O-])cc3)nn(CC(=O)N/N=C/c3ccc(Cl)cc3)c(=O)c12` ; wanted: its growth
Key: 80.5

Exercise: # input compound: C/C(=C\CSc1ccccc1C(=O)O)CCCC(C)CCCC(C)CCCC(C)C (stereo not given) ; wanted: its growth
Key: 21.5

###

System: M14 melanoma
protocol-text: NCI-60 one-dose screen, 48 h (100 = growth as untreated, 0 = no growth, -100 = all killed)
test-conditions: 10 µM
Compounds without any hit were thinned out: in the full panel of roughly 83,000, 20% have a hit.
metric: growth (%)
Give just the number in %; leave the unit off.

Exercise: # input compound: `Brc1ccc(N/N=C/c2c[nH]c3ccccc23)nc1` ; wanted: its growth
Key: 14.3

Exercise: # input compound: `CC(=O)Nc1ccc(-n2cnc3cc(-c4ccc(O)cc4)ccc32)cc1C` ; wanted: its growth
Key: 42.3

Exercise: # input compound: `CC(=O)Nc1nc(-c2ccc(N3CCN(C)CC3)c(NS(=O)(=O)c3cccc4c(N(C)C)cccc34)c2)cs1` ; wanted: its growth
Key: -57.5

Exercise: # input compound: `Cc1nc(Nc2nc(C)c3ccc(OCCN4CCOCC4)cc3n2)[nH]c(=O)c1C` ; wanted: its growth
Key: 18

Exercise: # input compound: `Cc1cccc(NC(=O)CSc2nc3ccc(F)cc3c(=O)n2-c2ccc(Cl)cc2)c1C` ; wanted: its growth
Key: 74

Exercise: # input compound: `COc1cccc(/C=C2\N=C(C)N(CCc3ccc(S(N)(=O)=O)cc3)C2=O)c1` ; wanted: its growth
Key: 100

Exercise: # input compound: `COc1ccc2[nH]c(=O)c(CSc3ccc(Nc4nccc(-c5ccc(Cl)cc5)n4)cc3)cc2c1` ; wanted: its growth
Key: 109

Exercise: # input compound: `CCOC(=O)c1sc(N/N=C(\C)c2ccc3c(c2)Nc2ccccc2S3)nc1C` ; wanted: its growth
Key: 19.4

Exercise: # input compound: `COc1ccc(-c2cc(C(=O)N=Nc3c(O)[nH]c4ccc(F)cc34)c3ccccc3n2)cc1` ; wanted: its growth
Key: 74.4

Exercise: # input compound: O=C(Cc1ccc2c(c1)CN(C1CCC(=O)NC1=O)C2=O)NCCc1ccccc1 (stereo unspecified) ; wanted: its growth
Key: 7.92

Exercise: # input compound: `C=CC(=O)Nc1ccc(C(=O)/C=C/c2ccc(N(C)CCF)cc2)c(O)c1` ; wanted: its growth
Key: -56.3

Exercise: # input compound: `O=C1Nc2ccc(Cl)cc2/C1=C/c1cccc(OCc2ccccn2)c1` ; wanted: its growth
Key: -50.5

Exercise: # input compound: `C[C@H]1[C@H](C)CC[C@]2(COC(=O)CCC(=O)NCC#CCN3CCNCC3)CC[C@]3(C)C(=CC[C@@H]4[C@@]5(C)CCCNC(C)(C)[C@@H]5CC[C@]43C)[C@H]12` ; wanted: its growth
Key: -16.7

Exercise: # input compound: `Nc1cccnc1/C=N/NC(=S)NCCNC(=O)c1ccc(-n2nc(-c3ccccc3O)nc2-c2ccccc2O)cc1` ; wanted: its growth
Key: -39

Exercise: # input compound: `COc1ccc(-c2ccc(SCC(=O)Nc3ccc(C#N)cc3)nn2)cc1` ; wanted: its growth
Key: 93

Exercise: # input compound: `Cc1cc(C(F)(F)F)ccc1C(=O)Nc1sc2c(c1C#N)CCC(=O)C2` ; wanted: its growth
Key: -59.2

Exercise: # input compound: `CN1CCN(c2ccc(Nc3nc(NCCCNC(=O)C4CCCCC4)c4sccc4n3)cc2)CC1` ; wanted: its growth
Key: -8.5

Exercise: # input compound: `Cc1ccc(C(C)C)cc1NC(=O)c1ccccc1N(C)C` ; wanted: its growth
Key: 93.9

Exercise: # input compound: `COc1cc2c3c(n(CCCn4ccnc4)c(=O)c2cc1OC)-c1nc2c(cc1C3=O)OCO2` ; wanted: its growth
Key: 19.9

Exercise: # input compound: `O=C(Cn1cc(CSc2nnc3oc4ccccc4n23)nn1)Nc1ccc(Br)cc1` ; wanted: its growth
Key: 98.8

Exercise: # input compound: `COc1ccc(-c2nc(-c3ccccc3)c(-c3ccccc3)n2-c2ccc(S(=O)(=O)Nc3ncccn3)cc2)cc1OC` ; wanted: its growth
Key: 93.9

Exercise: # input compound: `COc1cc(/C=C/C(=O)c2ccc(C(F)(F)F)cc2)ccc1Oc1nc(Nc2ccc(F)cc2)nc(N(C)C)n1` ; wanted: its growth
Key: 72.8

Exercise: # input compound: `COc1cccc(-c2ccc(/C=N/NC(=O)c3[nH]c4ccc(Br)cc4c3-c3ccccc3)o2)c1` ; wanted: its growth
Key: 16.7

Exercise: # input compound: `O=C(Nc1ccc(Cl)c([N+](=O)[O-])c1)Nc1ccc(Cl)c([N+](=O)[O-])c1` ; wanted: its growth
Key: 18.6

Exercise: # input compound: `O=C(CSc1nnc(-c2c[nH]c3ccccc23)n1-c1ccccc1)Nc1ccc(C(=O)/C=C/c2cccc([N+](=O)[O-])c2)cc1` ; wanted: its growth
Key: 94.1

Exercise: # input compound: `CN1CCN(c2ccc(C(=O)/C=C/c3cc(Br)ccc3F)cc2)CC1` ; wanted: its growth
Key: 52.1

Exercise: # input compound: `CN1CCc2c(sc3ncnc(N/N=C/c4ccc5ccccc5c4)c23)C1` ; wanted: its growth
Key: 82

Exercise: # input compound: `N#Cc1c(-c2ccc(F)cc2)nc(SCc2ccc([N+](=O)[O-])cc2)nc1N1CCOCC1` ; wanted: its growth
Key: 87.7

Exercise: # input compound: `O=c1oc2ccc(-c3ccc(F)cc3F)cc2c(=O)n1-c1ccc(Cl)c(C(F)(F)F)c1` ; wanted: its growth
Key: 21.5

Exercise: # input compound: `COc1cccc(-c2ccnc(/N=C(\N)Nc3ccc(S(=O)(=O)Nc4nc(C)cc(C)n4)cc3)n2)c1` ; wanted: its growth
Key: 114

Exercise: # input compound: OCc1[nH]nc2cc(Nc3ncc4ccc(Br)c(OC5CCC(O)CC5)c4n3)ccc12 (stereo unspecified) ; wanted: its growth
Key: -58.9

Exercise: # input compound: `O=S(=O)(Nc1ncccn1)c1ccc(-n2c(-c3ccc(Br)cc3)nc(-c3ccccc3)c2-c2ccccc2)cc1` ; wanted: its growth
Key: 38.4

Exercise: # input compound: `CCN1CCN(c2ccc(NC(=O)Nc3ccc(-c4cc(C(=O)NC(C)C)c5ncccc5n4)cc3)cc2C(F)(F)F)CC1` ; wanted: its growth
Key: -88.4

Exercise: # input compound: `Cc1ccc(/C=C/C(=O)c2ccc(S(=O)(=O)NCCNc3nc(Nc4ccc(F)cc4)nc(N(C)C)n3)cc2)cc1` ; wanted: its growth
Key: 14.6

Exercise: # input compound: `CO[C@H]1CSS[C@@H]1Cn1nc(-c2ccc(Oc3ccccc3)cc2)c2c(N)ncnc21` ; wanted: its growth
Key: -93

Exercise: # input compound: `COc1ccc(-c2ccc(/C=N/NC(=O)c3[nH]c4ccc(Br)cc4c3-c3ccccc3)s2)cc1` ; wanted: its growth
Key: 106
